Could you please report measured z-score for the items listed next?
Test: Components of the Cytosolic LPS Sensing Pathway: Gene Identification via Genome-wide siRNA Screen;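 also: robust z of the log signal after scaling to non-targeting control siRNA wells of the plate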
Settings: RAW264.7 macrophages, IL-1a HTRF, actives lie on both sides, screened at 100 nM (by protocol), cells primed 5 h with Pam3CSK4 first
Among all 53,000 sequences or so, about 3,700 (7%) were called active. Many of the other results were omitted from the sample, so actives are more common in it than they were.
One number for each entry.

Solved entries:
SEQUENCE ENTRY | RECORDED RESULT
GGAAGAGGAUAGGCAGGAATT against Gfer | 2.03
GUGGAUUAGGGAAUUUCAUTT against Mrgprb1 | 1.84
CCUCUUAAACAUGUCCUAGTT against Atp6v0a2 | -1.04
CCCACAGUAAAUUCAACGGTT against Gm5069 | 0.00754
CCAGAUCAUCGUGCAGAAUTT against E4f1 | 0.557

For the 4 sequences below, give their z-score values.
1. GCGGAUUUACACCUUAUCUTT against Bpi
2. GCAGGUACUGCGCUAUUAUTT against Atp13a2
3. GGACAACAAAGGGAGAUUCTT against Kctd12b
4. GGGAGAUGUUGUCAGGGUCTT against Rnasel

Given back:
1: -1.15; 2: -0.766; 3: 1.43; 4: -0.476

---

Assay: Components of the Cytosolic LPS Sensing Pathway: Gene Identification via Genome-wide siRNA Screen;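 also: robust z of the log signal after scaling to non-targeting control siRNA wells of the plate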
Conditions: RAW264.7 macrophages, IL-1a HTRF, actives lie on both sides, screened at 100 nM (by protocol), cells primed 5 h with Pam3CSK4 first
Description: Non-canonical inflammasome activation by cytosolic LPS is a critical component of the host response to Gram-negative bacterial infection, however we lack a comprehensive understanding of the cellular processes that control this pathway. […] Lipofectamine RNAiMAX Transfection Reagent ([…]; Invitrogen) was added in […] serum-free, antibiotic-free media to plate wells using a Thermo Scientific Matrix WellMate and Microplate Stacker. […] The plates were read on an EnVision plate reader (PerkinElmer). […]
The whole screen tested about 53,000 sequences, of which about 3,700 (7%) were called active.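 The calls were made as follows: active = gene knockdowns whose robust z-score for IL-1 alpha signal is at least 2 or at most -2, so actives lie on both sides; inactive = the rest.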 This excerpt belongs to a sample that is enriched for actives.
Please state which outcome applies, choosing from active, inactive

SEQUENCE ENTRY | LABEL
UACUCGUAUUCUUAAUUGCTT against Acsl1 | inactive

Asked: Record lookup: outcome of this test for GCGACCAUUUCGUUUUAGUTT against Frat1 ?
Given back: inactive

Asked: Record lookup: outcome of this test for GGUAGGAGGUAUUUCCCACTT against Shisa5 ?
Given back: inactive

---

Assay: Components of the Cytosolic LPS Sensing Pathway: Gene Identification via Genome-wide siRNA Screen;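 also: robust z of the log signal after scaling to non-targeting control siRNA wells of the plate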
Details: RAW264.7 macrophages, IL-1a HTRF, actives lie on both sides, screened at 100 nM (by protocol), cells primed 5 h with Pam3CSK4 first
Hit rate of the full screen: of about 53,000 sequences, about 3,700 (7%) were called active. This is one part of a sample in which actives are shown more often than they occur.
Entry flag: T if z-score reaches 0.5; F if it does not.

Completed entries (count: 5):
SEQUENCE ENTRY | LABEL
GGGUAGUUAUGACUAAAUUTT against Etl4 | T
GGUCAAGAGUGCAUUCAAATT against Olfr1445 | F
CGAAUACUACGCCAAGAUUTT against Abca2 | F
GGUUCCUCUCAAAAUUCAATT against Gprc6a | T
GGAAGAAAUGCAGGUGUGGTT against Gab3 | F

Asked: Check this sequence for z-score at or above 0.5: GCAUCGUCUAUAUUUUUGGTT against Timm50
Given back: F

Asked: Check this sequence for z-score at or above 0.5: GGCAGCUGAAAGAAGAUCUTT against Dffa
Given back: T

Asked: Check this sequence for z-score at or above 0.5: GCUGUGAUCAGGACGAGAATT against Stx2
Given back: F

Asked: Check this sequence for z-score at or above 0.5: CCUGAAGGGUCUGGCAAAATT against Zfp804a
Given back: T

Asked: Check this sequence for z-score at or above 0.5: GGAUGUGAAACAUGCUUUUTT against Olfr1030
Given back: T

Asked: Check this sequence for z-score at or above 0.5: GCUUUGGUGCACUUGCUUUTT against Akr1c13
Given back: T

Asked: Check this sequence for z-score at or above 0.5: GGUCAUUUUGGGAUAUCAGTT against Lman1
Given back: F
